system: SF-539; assay: NCI tumour cell line growth inhibition, 48 h
Calls of active or inactive are those of the source. Rule as the data show it: active = GI50 up to about 1.1 µM and inactive = higher.
Classes used: active, inactive

{"columns": ["Compound", "Assigned Class"],
 "data": [
  ["CSc1c(C#N)c(S)n(-c2ccc(Cl)cc2)c(=O)c1C#N", "inactive"],
  ["Nc1nc(Cl)cc(NC23CC4CC(CC(C4)C2)C3)n1", "inactive"],
  ["COc1ccc2c(c1)CC[C@@H]1C2CC[C@]2(C)C(=C=CP(=O)(O)O)CCC12 (stereo partly specified)", "inactive"],
  ["CC(C)/C(Cl)=N\\OC(=O)Nc1ccc(F)cc1", "inactive"],
  ["c1ccc2[nH]c(CNc3ccc(C4C[Se]N=N4)cc3)nc2c1 (stereo unspecified)", "inactive"],
  ["Cc1cc2c(c3c1c1ccccc1n3C)C(=O)C=CC2=O", "inactive"],
  ["COc1ccc(N2C(=O)C3c4[nH]c5ccccc5c4C4CCCCCCCCCCC4C3C2=O)cc1 (stereo unspecified)", "inactive"],
  ["Cn1c(CBr)nc2c1C(=O)c1nc(CBr)[nH]c(=O)c1C2=O", "inactive"],
  ["OC1(C23CC4CC(CC(C4)C2)C3)CSCC1(O)C12CC3CC(CC(C3)C1)C2 (stereo unspecified)", "inactive"],
  ["O=C(O)CC[C@H](NC(=O)c1ccc(-n2nc3ccc(=O)cc-3[nH]c2=O)cc1)C(=O)O", "inactive"],
  ["Cc1ccc2sc3ccc(N)cc3c(=O)c2c1", "inactive"],
  ["Cc1ccc(S(=O)(=O)N/N=C2\\CC3C4CCC3C2C4)cc1 (stereo unspecified)", "inactive"],
  ["C=CC[P@@]1(=O)O[C@H](c2ccccc2)C(C)N1C(C)C (stereo partly specified)", "inactive"],
  ["CC1=NN(c2ccccc2)C(=O)/C1=C/c1ccc(O)cc1", "inactive"],
  ["C=C1C(=O)O[C@H]2C[C@@H](C)[C@@H]3CC(=O)OC[C@@]3(C)CC12 (stereo partly specified)", "inactive"],
  ["CC1=CN(c2ccccc2)S2=C1c1sc3c(c1N2c1ccc(Br)cc1)CCCC3 (stereo unspecified)", "inactive"],
  ["COc1ccc(C2=C(N)c3cc(OC)ccc3C2=O)cc1", "inactive"],
  ["CCNCC(=O)Nc1ccc2c(c1)C(=O)c1ccc(NC(=O)CNCC)cc1C2=O", "inactive"],
  ["COc1cc(/C=C\\c2ccccc2)cc(OC)c1OC", "inactive"],
  ["CCOC(=O)[C@H](Cc1ccccc1)NC(=O)c1nc[nH]c1[N+](=O)[O-]", "inactive"],
  ["Cc1ccc(S(=O)(=O)OC2C3OC(C)(C)OC3OC2C(c2cc(O)c3c(c2O)C(=O)c2ccccc2C3=O)c2cc(O)c3c(c2O)C(=O)c2ccccc2C3=O)cc1 (stereo unspecified)", "inactive"],
  ["Nc1nc(Cl)cc(NCCCNc2cc(Cl)nc(N)n2)n1", "inactive"],
  ["N#CC1=C(N)OC2=C(CCCc3ccccc32)C1c1ccc([N+](=O)[O-])cc1 (stereo unspecified)", "inactive"],
  ["CN1S(=O)(=O)N(C)P12(N=P(CP(=NP13(N(C)S(=O)(=O)N1C)N(C)S(=O)(=O)N3C)(c1ccccc1)c1ccccc1)(c1ccccc1)c1ccccc1)N(C)S(=O)(=O)N2C", "inactive"],
  ["COc1ccc(NC(=S)Nc2c(C)n(C)n(-c3ccccc3)c2=O)cc1", "inactive"],
  ["COC1CC(CC2CCC(C)C(C(C)C(=O)O)O2)OC2(OC(C)(C3CCC(C)(C4OC(C5OC(O)(CO)C(C)CC5C)CC4C)O3)CC2C)C1C (stereo unspecified)", "active"],
  ["Cc1ccc2c(c1)C(C1Cc3c(C)cccc3C1=O)OC2=O (stereo unspecified)", "inactive"],
  ["C#CCCCCC#Cc1ccccc1C(=O)OC", "inactive"],
  ["COC1CC(n2ccc(=O)[nH]c2=O)OC1CO (stereo unspecified)", "inactive"],
  ["O=c1ccn(-c2ccccn2)c(=O)n1-c1ccccn1", "inactive"],
  ["COc1cc(/C=C2\\N=C(c3ccccc3)N(c3nc4c(Cl)cc(Cl)cc4s3)C2=O)ccc1O", "inactive"],
  ["CCOc1ccc(/C=N/[N+](C)(C)C)cc1OCC", "inactive"],
  ["COc1ccc(C2SC(=N)Nc3c2c(C)nn3C(=O)c2ccncc2)cc1OC (stereo unspecified)", "inactive"],
  ["CN1CCC(C(=O)NNc2ccccc2)CC1", "inactive"],
  ["COc1cc(/C=C/c2ccc(OC(C)=O)cc2)cc(OC)c1OC", "inactive"],
  ["CC(C)[Si]1(C(C)C)OCC2OC(n3cnc4c(N)ncnc43)C(N)C2O[Si](C(C)C)(C(C)C)O1 (stereo unspecified)", "inactive"],
  ["C/C(=N\\O)c1ccc(Nc2c3ccccc3nc3occc23)cc1", "active"],
  ["S=C(N/N=C/c1ccccn1)N1CCCCC1", "active"],
  ["CC(=O)O[C@H]1CC[C@H]2[C@@H]3CCC4=C(C(=O)C=CC4(C)OC(C)=O)[C@H]3CC[C@]12C (stereo partly specified)", "inactive"],
  ["Cc1cn(C2CC(n3cc(Cn4ccc(=O)[nH]c4=O)nn3)C(CO)O2)c(=O)[nH]c1=O (stereo unspecified)", "inactive"],
  ["CNc1ccc(OC)cc1S(=O)(=O)c1ccccc1[N+](=O)[O-]", "inactive"]
]}
